What IC50 was measured for each of the following?
target: Carboxy-terminal domain RNA polymerase II polypeptide A small phosphatase 1 (Homo sapiens); test: CTDSP1 inhibitors, concentration-response, biochemical, absorbance readout, ultra-high-throughput screen actives (AID 540297); format: functional
Sequence (Q9GZU7 whole entry, the tested form may be a part): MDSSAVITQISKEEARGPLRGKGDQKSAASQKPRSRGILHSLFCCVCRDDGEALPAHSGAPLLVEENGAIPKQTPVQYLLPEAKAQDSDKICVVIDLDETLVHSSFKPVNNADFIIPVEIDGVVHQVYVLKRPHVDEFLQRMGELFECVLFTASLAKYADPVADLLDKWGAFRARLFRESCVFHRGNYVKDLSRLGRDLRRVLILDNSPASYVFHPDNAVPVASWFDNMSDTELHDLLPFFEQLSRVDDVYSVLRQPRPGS
Activity calls are given as the source filed them. No stated cut-off is given here; in the data, actives have a measured IC50 and inactives only a lower limit.

Provide each entry's IC50 from the list below.
1. Cc1cccc(C)c1NC(=O)CN(C)C(=O)c1ccc2nc[nH]c2c1
2. COCCCN(C(=O)c1cc(-c2ccco2)nc2ccccc12)c1c(N)n(Cc2ccccc2)c(=O)[nH]c1=O
3. COc1ccc2c3c1OC1C(O)C=CC4C(C2)[N+](C)(C)CCC341 (stereo unspecified)
4. CCCc1nc2sc3ccccc3c(=O)c2c(=O)n1Cc1ccco1

RESULT:
1: 28 µM (active); 2: 12 µM (active); 3: 7 µM (active); 4: 9.92 µM (active)

Provide each entry's IC50 from the list below.
1. CC1=NN(c2ccc(Cl)c(C(=O)O)c2)C(=O)C1
2. Cc1ccc(C)c(OCCn2ccnc2)c1

RESULT:
1: 8.96 µM (active); 2: 5.06 µM (active)
